Test system: Fibroblast
Assay: Incucyte cell viability with human fibroblast; note: unitless GR value; below 1 slowed growth and below 0 cell loss
Type: toxicity, cell-based
Conditions: 18 h, 10 µM, compound concentration 10 uM, replicate number 2, timepoint 18 hours
Would you mind telling me the reported Growth Rate of each entry?

Worked cases, answers included:
[
  {
    "Line Notation": "COc1ccc(C(=O)N2CCN(C(=O)/C=C/c3ccc(Br)cc3)CC2)cc1",
    "Growth Rate": 0.79
  },
  {
    "Line Notation": "CCOC(=O)N[C@@H]1CC[C@@H]2[C@@H](C1)C[C@H]1C(=O)O[C@H](C)[C@H]1[C@H]2/C=C/c1ccc(-c2cccc(F)c2)cn1",
    "Growth Rate": -0.11
  },
  {
    "Line Notation": "O=C1NCc2ccc3c(-c4cccc(Cl)c4)c[nH]c3c21",
    "Growth Rate": -0.18
  }
]

Below: the item to evaluate.
Qu. Recorded Growth Rate for "N[C@](CC1c2ccccc2Oc2ccccc21)(C(=O)O)[C@H]1C[C@@H]1C(=O)O" with Fibroblast, please?
Ans. 0.82
